- target_or_test_system: DNA topoisomerase 1 (Homo sapiens) (UniProt P11387)
- Sequence (whole entry): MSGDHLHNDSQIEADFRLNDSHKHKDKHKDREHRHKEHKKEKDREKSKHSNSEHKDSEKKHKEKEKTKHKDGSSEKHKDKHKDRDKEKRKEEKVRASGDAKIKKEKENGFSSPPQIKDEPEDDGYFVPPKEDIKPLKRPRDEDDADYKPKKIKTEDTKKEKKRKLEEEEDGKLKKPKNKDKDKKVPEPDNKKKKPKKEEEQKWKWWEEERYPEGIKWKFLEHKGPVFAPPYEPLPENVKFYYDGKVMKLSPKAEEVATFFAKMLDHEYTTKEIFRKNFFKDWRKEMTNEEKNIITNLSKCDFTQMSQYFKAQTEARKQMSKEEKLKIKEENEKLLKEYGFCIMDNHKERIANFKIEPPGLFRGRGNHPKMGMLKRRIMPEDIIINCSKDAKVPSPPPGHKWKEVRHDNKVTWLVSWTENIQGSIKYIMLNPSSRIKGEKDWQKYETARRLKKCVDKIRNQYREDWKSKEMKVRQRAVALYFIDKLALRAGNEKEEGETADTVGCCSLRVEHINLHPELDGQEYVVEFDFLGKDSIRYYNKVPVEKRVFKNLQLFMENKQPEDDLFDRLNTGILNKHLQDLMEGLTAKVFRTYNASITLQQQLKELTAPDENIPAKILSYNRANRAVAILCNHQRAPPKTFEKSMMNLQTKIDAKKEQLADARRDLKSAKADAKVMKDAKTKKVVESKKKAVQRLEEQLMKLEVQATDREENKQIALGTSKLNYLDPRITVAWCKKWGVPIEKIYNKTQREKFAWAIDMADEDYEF
- protocol_details: Inhibition of recombinant human topoisomerase 1 assessed as decrease in relaxation of supercoiled pBR322 DNA at 100 uM after 30 mins by agarose gel electrophoresis relative to control
value_type: inhibition (%)

structure_string=Oc1cccc(-c2cc(-c3ccc(Cl)cc3)c3c(n2)-c2ccccc2OC3)c1 reading=20.2

P. Oc1ccccc1-c1cc(-c2ccc(Cl)cc2)c2c(n1)-c1ccccc1OC2
Q. Oc1cccc(-c2cc(-c3ccc(Cl)cc3)nc3c2COc2ccccc2-3)c1
// pick larger inhibition from pair: P vs Q Kindly state the label of the option you pick.
Q
(Q: 28.8%, P: 20.1%)

---

- target_or_test_system: DNA topoisomerase 2-alpha (Homo sapiens) (UniProt P11388)
- Sequence (P11388 whole entry): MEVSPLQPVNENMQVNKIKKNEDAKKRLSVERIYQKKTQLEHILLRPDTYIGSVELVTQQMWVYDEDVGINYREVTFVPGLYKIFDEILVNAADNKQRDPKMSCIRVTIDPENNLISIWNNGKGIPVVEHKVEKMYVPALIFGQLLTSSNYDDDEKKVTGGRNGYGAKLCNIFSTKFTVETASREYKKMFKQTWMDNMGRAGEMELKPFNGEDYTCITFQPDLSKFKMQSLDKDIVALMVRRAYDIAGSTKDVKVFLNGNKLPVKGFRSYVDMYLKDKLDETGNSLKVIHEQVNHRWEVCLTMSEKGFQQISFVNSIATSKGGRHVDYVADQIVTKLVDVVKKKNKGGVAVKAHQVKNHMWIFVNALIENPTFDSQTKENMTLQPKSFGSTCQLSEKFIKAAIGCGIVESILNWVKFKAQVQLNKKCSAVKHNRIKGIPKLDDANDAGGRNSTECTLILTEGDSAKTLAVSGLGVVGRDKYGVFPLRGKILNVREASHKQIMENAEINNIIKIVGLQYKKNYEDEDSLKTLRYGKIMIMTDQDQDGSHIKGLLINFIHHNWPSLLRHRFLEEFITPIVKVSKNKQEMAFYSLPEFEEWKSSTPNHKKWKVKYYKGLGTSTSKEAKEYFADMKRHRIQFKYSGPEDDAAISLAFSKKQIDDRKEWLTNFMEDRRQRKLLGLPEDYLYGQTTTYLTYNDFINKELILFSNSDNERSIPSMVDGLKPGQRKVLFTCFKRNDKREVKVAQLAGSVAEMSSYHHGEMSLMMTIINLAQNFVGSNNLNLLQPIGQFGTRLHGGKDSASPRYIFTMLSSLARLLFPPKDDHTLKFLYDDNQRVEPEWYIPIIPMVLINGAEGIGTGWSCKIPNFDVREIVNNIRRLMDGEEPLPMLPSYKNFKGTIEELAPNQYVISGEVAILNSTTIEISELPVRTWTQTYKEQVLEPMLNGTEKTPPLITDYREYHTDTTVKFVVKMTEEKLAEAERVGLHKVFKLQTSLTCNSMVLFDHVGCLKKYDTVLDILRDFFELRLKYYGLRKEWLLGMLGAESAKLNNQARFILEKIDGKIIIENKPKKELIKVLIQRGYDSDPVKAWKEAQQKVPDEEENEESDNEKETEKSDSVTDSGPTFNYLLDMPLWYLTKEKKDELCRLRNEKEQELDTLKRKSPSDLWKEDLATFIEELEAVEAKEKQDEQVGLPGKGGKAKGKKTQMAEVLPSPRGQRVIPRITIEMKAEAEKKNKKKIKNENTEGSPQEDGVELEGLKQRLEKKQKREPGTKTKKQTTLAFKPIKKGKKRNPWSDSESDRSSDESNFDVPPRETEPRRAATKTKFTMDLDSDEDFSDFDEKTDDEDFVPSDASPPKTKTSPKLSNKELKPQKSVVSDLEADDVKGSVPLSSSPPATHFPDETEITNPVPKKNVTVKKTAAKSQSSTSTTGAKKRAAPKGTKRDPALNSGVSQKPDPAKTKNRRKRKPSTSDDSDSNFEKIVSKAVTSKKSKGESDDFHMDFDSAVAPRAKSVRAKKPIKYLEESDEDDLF
- protocol_details: Inhibition of recombinant human topoisomerase 2alpha assessed as decrease in relaxation of supercoiled pBR322 DNA at 100 uM after 30 mins by agarose gel electrophoresis relative to control
value_type: inhibition (%)

structure_string=Oc1ccccc1-c1cc(-c2ccc(Cl)cc2)nc2c1COc1ccccc1-2 reading=88.9
structure_string=Oc1cccc(-c2cc(-c3ccccc3Cl)nc3c2COc2ccccc2-3)c1 reading=90.8
structure_string=Oc1ccc(-c2cc(-c3ccc(Cl)cc3)nc3c2COc2ccccc2-3)cc1 reading=87.8

---

Some molecules, each annotated with its measured IC50.
- Tested on: HCT-15
- protocol_details: Antiproliferative activity against human HCT15 cells after 72 hrs by CCK-8 assay
- Assay type: functional, cell-based
- measurement_setup: HCT-15, 72 h

structure_string=Oc1ccccc1-c1cc(-c2ccccc2Cl)c2c(n1)-c1ccccc1OC2 reading="> 50 µM"
structure_string=Oc1ccccc1-c1cc(-c2cccc(Cl)c2)c2c(n1)-c1ccccc1OC2 reading="> 50 µM"

Would you kindly look at the next entry?
Look up IC50 of Oc1ccccc1-c1cc(-c2ccccc2Cl)nc2c1COc1ccccc1-2 and report it.
> 50 µM
